System: T98 cells
Measurement protocol: Cell viability assay (PrestoBlue, 5 d) in T98 glioma cells
Format: cell-based
Condition notes: library screen, 5 d treatment, mean of three independent experiments in triplicates, read-out: EC50 T98 ± SEM
Protocol: The antiproliferative activity of a total of 100 compounds was tested against U87 and T98 glioma cell lines, using TMZ[3] and the Topoisomerase I inhibitor SN-38[18] as positive controls. Cells were treated with the library members for 5 d at three different concentrations (3, 30 and 300 µM) and cell viability determined using the PrestoBlue reagent. […]
Quantity measured: EC50 (µM)

| Molecule | Tested system | EC50 [µM] |
| --- | --- | --- |
| CNc1ncc2c(-c3ccc(N4CCNCC4)nc3)nn(Cc3cn(-c4ccccc4)nn3)c2n1 [eSM139] | T98 cells | 8.6 |
| CNc1ncc2c(-c3cnc4[nH]ccc4c3)nn(Cc3cn(Cc4ccccc4)nn3)c2n1 [eSM145] | T98 cells | 9.11 |

* * *

Tested on: T98 cells
Measurement protocol: Cell viability assay (PrestoBlue, 5 d) in T98 glioma cells
Type: cell-based
Condition notes: library screen, 5 d treatment, mean of three independent experiments in triplicates, read-out: EC50 T98 ± SEM
pEC50: −log10 of the molar value.
Quantity measured: pEC50

| Molecule | pEC50 |
| --- | --- |
| COc1ccc(-c2nn(CC3CCCC3)c3ncnc(N)c23)cc1 [eSM205] | 4.92 |
| CN(C)CC1CCN(CCn2nc(-c3ccc4[nH]ccc4c3)c3c(N)ncnc32)CC1 [eCF221] | 4.77 |

* * *

Test system: T98 cells
Measurement protocol: Cell viability assay (PrestoBlue, 5 d) in T98 glioma cells
Format: cell-based
Condition notes: Homo sapiens, T98, 120 h; repeat for most potent hits; 7-point half-log dose-response 1 to 1,000 nM; PrestoBlue day 5
Quantity measured: EC50 (µM)
Entry rule: numbers only, all in µM.

Quick note, EC50 for Nc1nc2cc(-c3nn(CC4CCCC4)c4ncnc(N)c34)ccc2o1 [eCF324] landed at 0.01

* * *

System: T98 cells
Measurement protocol: Cell viability assay (PrestoBlue, 5 d) in T98 glioma cells
Assay type: cell-based
Condition notes: library screen, 5 d treatment, mean of three independent experiments in triplicates, read-out: EC50 T98 ± SEM
Experimental: The antiproliferative activity of a total of 100 compounds was tested against U87 and T98 glioma cell lines, using TMZ[3] and the Topoisomerase I inhibitor SN-38[18] as positive controls. Cells were treated with the library members for 5 d at three different concentrations (3, 30 and 300 µM) and cell viability determined using the PrestoBlue reagent. […]
Quantity measured: EC50 (µM)

Worked examples follow.
| Compound | EC50 [µM] |
| --- | --- |
| COc1cc(-c2nn(CCN3CCC(N4CCCCC4)CC3)c3ncnc(N)c23)ccc1NC(=O)OC(C)(C)C [eCF599] | 23 |
| NC(=O)c1ccc(-c2nn(CC3CCCC3)c3ncnc(N)c23)cc1 | 21.3 |
| COc1ccc(-c2nn(CC3CCCC3)c3ncnc(N)c23)cc1OC | 6.58 |
| CNc1ncc2c(-c3ccc(N4CCNCC4)nc3)nn(Cc3cn(Cc4ccccc4)nn3)c2n1 | 11.3 |
| CNc1ncc2c(-c3ccc(N4CCN(C)CC4)nc3)nn(Cc3cn(Cc4ccccc4)nn3)c2n1 | 18.8 |

a = Nc1ncnc2c1c(-c1ccc(-c3ccccc3)cc1)nn2CC1CCCC1
b = Cc1ccc(-c2nn(CCN3CCC(CN(C)C)CC3)c3ncnc(N)c23)cc1
Qu. Lower value of EC50 belongs to which: a or b ? Indicate your choice by writing its label.
Ans. b
(b: 6.28 µM, a: 22.8 µM)

* * *

Test system: T98 cells
Measurement protocol: Cell viability assay (PrestoBlue, 5 d) in T98 glioma cells
Type: cell-based
Condition notes: library screen, 5 d treatment, mean of three independent experiments in triplicates, read-out: EC50 T98 ± SEM
Quantity measured: EC50 (µM)

Worked examples follow.
| Compound | Tested system | Measure unit | EC50 |
| --- | --- | --- | --- |
| COc1cc(-c2nn(CCN3CCC(N4CCCCC4)CC3)c3ncnc(N)c23)ccc1NC(=O)OC(C)(C)C [eCF519] | T98 cells | µM | 3.14 |
| COc1cc(-c2nn(CCN3CCC(N(C)C)CC3)c3ncnc(N)c23)ccc1NC(=O)N(C)C(C)(C)C [eCF608] | T98 cells | µM | 14.4 |
| CNc1ncc2c(-c3ccc(N4CCNCC4)cc3)nn(Cc3cn(Cc4ccccc4)nn3)c2n1 [eSM135] | T98 cells | µM | 6.26 |

I = CNc1ncc2c(-c3ccc(N4CCNCC4)nc3)nn(Cc3cn(C4CCCC4O)nn3)c2n1 (centres unmarked) [eSM121]
II = COc1cc(-c2nn(CCN3CCC(N(C)C)CC3)c3ncnc(N)c23)ccc1NC(=O)Oc1ccccc1 [eCF532]
Qu. Rank I against II by their EC50 values and give the higher one. Indicate your choice by writing its label.
Ans. I
(I: 26.3 µM, II: 9.1 µM)

a = CN(C)C1CCN(CCn2nc(-c3cnc4[nH]ccc4c3)c3c(N)ncnc32)CC1 [eCF502]
b = CN(C)C1CCN(CCn2nc(-c3ccc(CC(=O)OC(C)(C)C)cc3)c3c(N)ncnc32)CC1 [eCF553]
Qu. Rank a against b by their EC50 values and give the higher one. Indicate your choice by writing its label.
Ans. a

* * *

System: T98 cells
Measurement protocol: Cell viability assay (PrestoBlue, 5 d) in T98 glioma cells
Type: cell-based
Condition notes: Homo sapiens, T98, 120 h, library screen, 5 d treatment, mean of three independent experiments in triplicates, read-out: EC50 T98 ± SEM
pEC50: −log10 of the molar value.
Quantity measured: pEC50

Worked examples follow.
| Compound | pEC50 |
| --- | --- |
| COc1cc(-c2nn(CCN3CCC(N(C)C)CC3)c3ncnc(N)c23)ccc1NC(=O)OC(C)(C)C [eCF506] | 5.00 |
| Nc1nc2cc(-c3nn(CC4CCCO4)c4ncnc(N)c34)ccc2o1 (stereo not drawn) [eCF325] | 6.98 |
| CCOC(Cn1nc(-c2ccc3oc(N)nc3c2)c2c(N)ncnc21)OCC [eCF309] | 6.89 |
| Nc1nc2cc(-c3nn(C[C@H]4CCCO4)c4ncnc(N)c34)ccc2o1 [eCF333] | 7.06 |

A = Nc1nc2cc(-c3nn(C[C@@H]4CCCO4)c4ncnc(N)c34)ccc2o1 [eCF334]
B = Nc1nc2cc(-c3nn(CC4CCCC4)c4ncnc(N)c34)ccc2o1 [eCF324]
C = Nc1nc2cc(-c3nn(CC4OCCO4)c4ncnc(N)c34)ccc2o1 [eCF311]
D = COC(Cn1nc(-c2cnc3[nH]ccc3c2)c2c(N)ncnc21)OC [eCF308]
Qu. # sort list by recorded pEC50, greatest to least // list labels; follow requested order
Ans. B, A, C, D
(B: 7.96, A: 7.00, C: 6.49, D: 5.13)

* * *

Tested on: T98 cells
Measurement protocol: Cell viability assay (PrestoBlue, 5 d) in T98 glioma cells
Assay type: cell-based
Condition notes: library screen, 5 d treatment, mean of three independent experiments in triplicates, read-out: EC50 T98 ± SEM
Description: The antiproliferative activity of a total of 100 compounds was tested against U87 and T98 glioma cell lines, using TMZ[3] and the Topoisomerase I inhibitor SN-38[18] as positive controls. Cells were treated with the library members for 5 d at three different concentrations (3, 30 and 300 µM) and cell viability determined using the PrestoBlue reagent. […]
pEC50: −log10 of the molar value.
Each record here notes measured pEC50.

Worked examples follow.
| Compound | pEC50 |
| --- | --- |
| CCOC(Cn1nc(-c2ccc(C(N)=O)cc2)c2c(N)ncnc21)OCC [eCF209] | < 4.52 |
| CN(C)C1CCN(CCn2nc(-c3ccc(NCc4ccccn4)cc3)c3c(N)ncnc32)CC1 [eCF576] | < 4.52 |

Readout pEC50 for CNc1ncc2c(-c3ccc(C(N)=O)cc3)nn(CC3CCCC3)c2n1 [eSM106] , test system T98 cells, was < 4.52

* * *

Each record here notes measured EC50.
Test system: T98 cells
Measurement protocol: Cell viability assay (PrestoBlue, 5 d) in T98 glioma cells
Format: cell-based
Condition notes: library screen, 5 d treatment, mean of three independent experiments in triplicates, read-out: EC50 T98 ± SEM

Worked examples follow.
| Smiles data | Tested system | EC50 |
| --- | --- | --- |
| CNc1ncc2c(-c3ccc(C(F)(F)F)cc3)nn(CC3OCCO3)c2n1 | T98 cells | > 30 µM |
| COc1ccc(-c2nn(CCN3CCC(CN(C)C)CC3)c3ncnc(N)c23)cc1OC | T98 cells | > 30 µM |

Kindly review the next compound as well.
Readout EC50 for CNc1ncc2c(-c3ccc(N4CCN(C(=O)NC(C)(C)C)CC4)nc3)nn(CC3CCCC3)c2n1 , test system T98 cells, was > 30 µM
